Would you mind telling me the reported IC50 of each entry?
target: Staphylococcus aureus Russell β-lactamase (Staphylococcus aureus)
Construct: host or cells: Staphylococcus aureus Russell
Sequence (P00807 25-281): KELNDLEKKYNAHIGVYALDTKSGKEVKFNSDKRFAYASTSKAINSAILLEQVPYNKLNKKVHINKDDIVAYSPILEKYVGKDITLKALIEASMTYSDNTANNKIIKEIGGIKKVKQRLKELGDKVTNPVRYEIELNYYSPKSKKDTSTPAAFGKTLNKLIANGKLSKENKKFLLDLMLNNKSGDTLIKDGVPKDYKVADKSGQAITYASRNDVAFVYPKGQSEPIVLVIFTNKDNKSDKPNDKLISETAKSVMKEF
test name: β-lactamase inhibition I50
Assay type: biochemical
The response must be a number in nM with no trailing unit.

Answer with the recorded IC50 for the compound listed here: CCOC(=O)COC/C=C1\O[C@@H]2CC(=O)N2[C@H]1C(=O)OCc1ccccc1
320

Answer with the recorded IC50 for the compound listed here: O=C(O)[C@H]1/C(=C/COCc2ccccc2)O[C@@H]2CC(=O)N21 [Example 5, Sodium 9-O-benzylclavulanate]
17.3

Answer with the recorded IC50 for the compound listed here: COC/C=C1\O[C@@H]2CC(=O)N2[C@H]1C(=O)OCc1ccccc1 [Example 2, Benzyl 9-O-methylclavulanate]
165

Answer with the recorded IC50 for the compound listed here: COC(=O)[C@H]1/C(=C/COCc2ccccc2)O[C@@H]2CC(=O)N21 [Example 4, Methyl 9-O-benzylclavulanate]
16.5
